Numbers sourced from patent US8735398B2.

# Test system: HCV 1b genotype
# procedure_text: HCV replicon assay (HCV-neo replicon cells, wild-type)
# Format: cell-based, Hepatitis C virus
# stated_conditions: Hepatitis C virus, HCV 1b genotype replicon; class symbol; read-out: EC50 Range against HCV 1b
pEC50: −log10 of the molar value.
assay_endpoint: pEC50

Below, 5 compounds whose answers are already recorded.
CC1(C(=O)N2CCC[C@H]2C(=O)Nc2ccc(-c3cnc(-c4ccc(NC(=O)[C@@H]5CCCN5C(=O)C5(C)CCCN5)cc4)o3)cc2)CCCN1 (stereo partly drawn)
5.00 to 6.00
CC(=O)N1CCC[C@H]1C(=O)Nc1ccc(-c2ccc(-c3ccc(NC(=O)[C@@H]4CCCN4C(C)=O)cc3)s2)cc1
6.00 to 7.00
O=C(Nc1ccc(-c2cc(-c3ccc(NC(=O)[C@@H]4C=CCN4C(=O)C4CCC4)cc3)[nH]n2)cc1)[C@@H]1C=CCN1C(=O)C1CCC1
5.00 to 6.00
CC(=O)N1CCC[C@H]1C(=O)Nc1ccc(-c2nc(-c3ccc(NC(=O)[C@@H]4C=CCN4C(=O)c4ccno4)cc3)cs2)cc1
6.00 to 7.00
O=C(Nc1ccc(-c2ncc(-c3ccc(NC(=O)[C@@H]4CCCN4C(=O)C4CC4)cc3)o2)cc1)C1CCCN1C(=O)C1CC1 (stereo in doubt)
6.00 to 7.00

As a next step, examine the compound that follows.
Incoming: Dear colleague, I am looking for the recorded pEC50 of the following compound: `CC(=O)N1CCC[C@H]1C(=O)Nc1ccc(-c2cnc(-c3ccc(NC(=O)[C@@H]4C[C@@H](O)CN4C(=O)OCc4ccccc4)cc3)o2)cc1`
Outgoing: 6.00 to 7.00

###

Listed next: entries and their corresponding pEC50.
# System: HCV 1b genotype
# procedure_text: HCV replicon assay (HCV-neo replicon cells, wild-type)
# Format: cell-based, Hepatitis C virus
# stated_conditions: Hepatitis C virus, HCV 1b genotype replicon; class symbol; read-out: EC50 Range against HCV 1b
pEC50: −log10 of the molar value.

Below, 5 compounds whose answers are already recorded.
CN1CCN(C(C(=O)N2CCC[C@H]2C(=O)Nc2ccc(-c3cnc(-c4ccc(NC(=O)[C@@H]5CCCN5C(=O)C(c5ccccc5)N5CCN(C)CC5)cc4)o3)cc2)c2ccccc2)CC1 (stereo partly shown)
7.00 to 8.34
C[C@H](NC(=O)[C@H](O)c1ccccc1)C(=O)Nc1ccc(-c2cc(-c3ccc(NC(=O)[C@@H](C)NC(=O)[C@H](O)c4ccccc4)cc3)[nH]n2)cc1
> 8.34
C[C@H](NC(=O)Cc1ccccc1)C(=O)Nc1ccc(-c2nc[nH]c2-c2ccc(NC(=O)[C@H](C)NC(=O)Cc3ccccc3)cc2)cc1
5.00 to 6.00
O=C(Nc1ccc(-c2nnc(-c3ccc(NC(=O)[C@@H]4CCCN4C(=O)c4nc(Cl)cc5ccccc45)cc3)o2)cc1)[C@@H]1CCCN1C(=O)c1nc(Cl)cc2ccccc12
5.00 to 6.00
O=C(Nc1ccc(-c2cnc(-c3ccc(NC(=O)[C@@H]4CCCN4C(=O)C4CCCCN4Cc4ccccc4)cc3)o2)cc1)[C@@H]1CCCN1C(=O)C1CCCCN1Cc1ccccc1 (stereo partly shown)
5.00 to 6.00

Incoming: Dear colleague, I am looking for the recorded pEC50 of the following compound: `COc1cccc2c(C(=O)N3CCC[C@H]3C(=O)Nc3ccc(-c4nnc(-c5ccc(NC(=O)[C@@H]6CCCN6C(=O)c6nc(Cl)cc7c(OC)cccc67)cc5)o4)cc3)nc(Cl)cc12`
Outgoing: 6.00 to 7.00

Incoming: Dear colleague, I am looking for the recorded pEC50 of the following compound: CN(C)C(C(=O)N1CCC[C@H]1C(=O)Nc1ccc(-c2cnc(-c3ccc(NC(=O)[C@@H]4CCCN4C(=O)C(c4ccc(F)cc4F)N(C)C)cc3)o2)cc1)c1ccc(F)cc1F (stereo partly shown)
Outgoing: > 8.34

Incoming: Dear colleague, I am looking for the recorded pEC50 of the following compound: `O=C(Nc1ccc(-c2cnc(-c3ccc(NC(=O)[C@@H]4CCCN4C(=O)[C@H](O)c4ccccc4)cc3)o2)cc1)[C@@H]1CCCN1C(=O)[C@H](O)c1ccccc1`
Outgoing: > 8.34

Incoming: Dear colleague, I am looking for the recorded pEC50 of the following compound: `CN(C)[C@@H](C(=O)N1CCC[C@H]1C(=O)Nc1ccc(-c2ccc(-c3ccc(NC(=O)[C@@H]4CCCN4C(=O)[C@H](O)c4ccccc4)cc3)o2)cc1)c1ccccc1`
Outgoing: > 8.34

Incoming: Dear colleague, I am looking for the recorded pEC50 of the following compound: `CC(=O)N1CCC[C@H]1C(=O)Nc1ccc(-c2nnc(-c3ccc(NC(=O)[C@@H]4CCCN4C(C)=O)cc3)o2)cc1`
Outgoing: 5.00 to 6.00

Incoming: Dear colleague, I am looking for the recorded pEC50 of the following compound: `CO[C@H]1C[C@@H](C(=O)Nc2ccc(-c3cnc(-c4ccc(NC(=O)[C@@H]5C[C@H](OC)CN5C(=O)[C@H](O)c5ccccc5)cc4)o3)cc2)N(C(=O)[C@H](O)c2ccccc2)C1`
Outgoing: > 8.34

Incoming: Dear colleague, I am looking for the recorded pEC50 of the following compound: `O=C(Nc1ccc(-c2nnc(-c3ccc(NC(=O)[C@@H]4CCCN4C(=O)Cc4cccnc4)cc3)o2)cc1)[C@@H]1CCCN1C(=O)Cc1cccnc1`
Outgoing: 5.00 to 6.00

Incoming: Dear colleague, I am looking for the recorded pEC50 of the following compound: `CN(C)Cc1nc(-c2ccc(NC(=O)[C@@H]3CCCN3C(=O)Cc3ccccc3)cc2)c(-c2ccc(NC(=O)[C@@H]3CCCN3C(=O)Cc3ccccc3)cc2)o1`
Outgoing: 5.00 to 6.00

Incoming: Dear colleague, I am looking for the recorded pEC50 of the following compound: `COc1cccc2c(C(=O)N3CCC[C@H]3C(=O)Nc3ccc(-c4cnc(-c5ccc(NC(=O)[C@@H]6CCCN6C(=O)[C@@H](c6ccccc6)N(C)C)cc5)o4)cc3)nc(Cl)cc12`
Outgoing: 7.00 to 8.34

Incoming: Dear colleague, I am looking for the recorded pEC50 of the following compound: `O=C(Nc1ccc(-c2cnc(-c3ccc(NC(=O)[C@@H]4CCCN4C(=O)c4cc5ccccc5o4)cc3)o2)cc1)[C@@H]1CCCN1C(=O)c1cc2ccccc2o1`
Outgoing: 6.00 to 7.00

Incoming: Dear colleague, I am looking for the recorded pEC50 of the following compound: `O=C(Nc1ccc(-c2nncn2-c2ccc(NC(=O)[C@@H]3C[C@@H](O)CN3C(=O)Cc3ccccc3)cc2)cc1)[C@@H]1C[C@@H](O)CN1C(=O)Cc1ccccc1`
Outgoing: 5.00 to 6.00

Incoming: Dear colleague, I am looking for the recorded pEC50 of the following compound: COc1cccc2c1C=C(Cl)N(c1ccc(-c3ncc(-c4ccc(NC(=O)[C@@H]5C[C@@H]6C[C@@H]6N5C(=O)c5nc(Cl)cc6c(OC)cccc56)cc4)o3)cc1)C2C(=O)N1[C@H](C(N)=O)C[C@@H]2C[C@@H]21 (stereo partly shown)
Outgoing: 6.00 to 7.00

Incoming: Dear colleague, I am looking for the recorded pEC50 of the following compound: `O=C(Nc1ccc(-c2nnc(-c3ccc(NC(=O)[C@@H]4CCCN4C(=O)c4ccco4)cc3)o2)cc1)[C@@H]1CCCN1C(=O)c1ccco1`
Outgoing: 6.00 to 7.00

###

# Tested on: HCV 1b genotype
# procedure_text: HCV replicon assay (HCV-neo replicon cells, wild-type)
# Format: cell-based, Hepatitis C virus
# stated_conditions: Hepatitis C virus, HCV 1b genotype replicon; class symbol; read-out: EC50 Range against HCV 1b
pEC50: −log10 of the molar value.
Listed next: entries and their corresponding pEC50.

Below, 5 compounds whose answers are already recorded.
Cn1nc(-c2ccc(NC(=O)[C@@H]3CCCN3C(=O)Cc3ccccc3)cc2)cc1-c1ccc(NC(=O)[C@@H]2CCCN2C(=O)Cc2ccccc2)cc1 [FY-1]
6.00 to 7.00
O=C(Nc1ccc(-c2ccc(-c3ccc(NC(=O)[C@@H]4CCCN4C(=O)c4nccc5ccccc45)cc3)o2)cc1)[C@@H]1CCCN1C(=O)c1nccc2ccccc12 [JG-62]
6.00 to 7.00
O=C(Nc1ccc(-c2nnc(-c3ccc(NC(=O)[C@@H]4CCCN4C(=O)[C@H]4CCCO4)cc3)o2)cc1)[C@@H]1CCCN1C(=O)[C@H]1CCCO1 [RK-15]
5.00 to 6.00
CC(=O)N1CCC[C@H]1C(=O)Nc1ccc(-c2cnc(-c3ccc(NC(=O)[C@@H]4C[C@@H](OC(C)(C)C)CN4C(=O)OCc4ccccc4)cc3)o2)cc1 [MS-2]
6.00 to 7.00
C[C@H](NC(=O)[C@@](C)(O)c1ccccc1)C(=O)Nc1ccc(-c2cnc(-c3ccc(NC(=O)[C@H](C)NC(=O)[C@@](C)(O)c4ccccc4)cc3)o2)cc1 [OL-56]
> 8.34

Incoming: Dear colleague, I am looking for the recorded pEC50 of the following compound: C[C@@](O)(C(=O)N1CC[C@@H](NC(=O)Nc2ccc(-c3cnc(-c4ccc(NC(=O)N[C@@H]5CCN(C(=O)[C@@](C)(O)c6ccccc6)C5)cc4)o3)cc2)C1)c1ccccc1 [FY-7]
Outgoing: 6.00 to 7.00

Incoming: Dear colleague, I am looking for the recorded pEC50 of the following compound: CC(=O)N1CCC[C@H]1C(=O)Nc1ccc(-c2nc(-c3ccc(NC(=O)[C@@H]4CCCN4C(=O)Cc4ccccc4)cc3)cs2)cc1 [Example D-45]
Outgoing: 6.00 to 7.00

Incoming: Dear colleague, I am looking for the recorded pEC50 of the following compound: C[C@](O)(C(=O)N1CCC[C@H]1C(=O)Nc1ccc(-c2nc[nH]c2-c2ccc(NC(=O)[C@@H]3CCCN3C(=O)[C@](C)(O)c3ccccc3)cc2)cc1)c1ccccc1 [JG-47]
Outgoing: 7.00 to 8.34

Incoming: Dear colleague, I am looking for the recorded pEC50 of the following compound: CN(C)[C@@H](C(=O)N1CCCC1C(=O)Nc1ccc(-c2ncc(-c3ccc(NC(=O)[C@@H]4CCCN4C(=O)[C@@H](c4ccccc4)N(C)C)cc3)o2)cc1)c1ccccc1 (some centres unmarked) [OL-51]
Outgoing: 7.00 to 8.34

Incoming: Dear colleague, I am looking for the recorded pEC50 of the following compound: O=C(Nc1ccc(-c2cnc(-c3ccc(NC(=O)[C@@H]4CCCN4C(=O)c4nc5ccccc5s4)cc3)o2)cc1)[C@@H]1CCCN1C(=O)c1nc2ccccc2s1 [JG-29]
Outgoing: 6.00 to 7.00

Incoming: Dear colleague, I am looking for the recorded pEC50 of the following compound: CO[C@@H](C(=O)N1CCC[C@H]1C(=O)Nc1ccc(-c2cnc(-c3ccc(NC(=O)[C@@H]4CCCN4C(=O)[C@H](OC)c4ccccc4)cc3)o2)cc1)c1ccccc1 [JG-25]
Outgoing: 7.00 to 8.34
